Hi there, I'd appreciate the recorded folding stability dG unfold for every entry that follows.
protocol-notes: folding stability dG unfold from trypsin proteolysis; higher = more stable
Field note: include the unit after the figure.

[Q] folding stability dG unfold lookup needed for SMKTITIPADTLSPEEIEALLKELGFDPEKIKISTEGDKLVVTVPDMIVFLTPPPPVPTVPPTNPERLAALS [r1_57_JUSTAS] , thanks.
[A] 0.643 kcal/mol

[Q] folding stability dG unfold lookup needed for SAGGSALPDIEVEELVRRLLELLEEDQPFRIVVFPPGGRWLTLDELLNVPAEEIPDLVVLVFVPDLSAGGSA [r15_144_TrMRF] , thanks.
[A] 3.04 kcal/mol

[Q] folding stability dG unfold lookup needed for SAGNDEEDQKKAEEQQKPPLEIEPIRVMVMVPFPGGDLLISITIPIIKYPDGGIIIPIPIEIIPLEDISAGG [r19_11_TrROS] , thanks.
[A] 2.06 kcal/mol

[Q] folding stability dG unfold lookup needed for SAGGSAGGSAGGKKIRFYFPNGNPVELTEILDVDPEDKWARIDVEHNGKKHKHPMPADDLSAGGSAGGSAGG [r7_236_TrROS] , thanks.
[A] -1.36 kcal/mol

[Q] folding stability dG unfold lookup needed for SAGGSAGGSAGPKIKIKKFPDFLIAEIEFPDGKKATAIFDPKTGKIIVFVGDKPIEIDIGSAGGSAGGSAGG [r11_846_TrMRF] , thanks.
[A] 2.16 kcal/mol

[Q] folding stability dG unfold lookup needed for SAGGSAGGSAGDDNDGKKKFPMTIKIPPIPIEIPPGMKITSWIPIRIPGGLEFPIIYITPSAGGSAGGSAGG [r11_388_TrROS] , thanks.
[A] 0.923 kcal/mol

[Q] folding stability dG unfold lookup needed for SAGGSMTTTTVTVTDPAGNTTTYTFPSSVPLEEIVEAVSKALGRPVTVLSVTTDPSGTTTVTLAVPGSAGGS [r8_285_JUSTAS] , thanks.
[A] 4.33 kcal/mol

[Q] folding stability dG unfold lookup needed for SAGGSAMIVTEDPNGVLTTTENGKVTTTTVTPVPRPDPFSDKTFTEYVVTTTTTPVAPSPITPNTLSAGGSA [r15_515_JUSTAS] , thanks.
[A] 1.26 kcal/mol

[Q] folding stability dG unfold lookup needed for SAGPPPWMVIRIPFWVKVTPDDGIITIEFKIEIGNKEFKIKITIPIPPELADAPPGETIPIPIWIFIRPSAG [r5_714_TrROS] , thanks.
[A] 3.99 kcal/mol

[Q] folding stability dG unfold lookup needed for SKTIVIELENIEDMTKEELKNLIKELAEKGETVKVTILNKDGKEVKTIEIKPGEIVPFPKGSKVLIKIEKSA [r9_264_TrROS_Hall] , thanks.
[A] 1.42 kcal/mol

[Q] folding stability dG unfold lookup needed for SAMLVVLKDPKTGKLILVDPEQLSPEYLERGVEPVREIPPLEVVEVESEEEAEEIRKKYPEKILVTLGPSAG [r14_638_JUSTAS] , thanks.
[A] 0.68 kcal/mol

[Q] folding stability dG unfold lookup needed for SAGGSAGGSAGGEEVTIVVKSKEDIEALLPPGWKVTKIEEIYVDKETGEKYYKITVKKESAGGSAGGSAGGS [r10_256_TrROS_Hall] , thanks.
[A] 4.23 kcal/mol

[Q] folding stability dG unfold lookup needed for SAGGSAGGSAGSMTSISVDVPVPGKNVVTVTVTLPPNTTTVTITVEPLPNGELKVTVETSSAGGSAGGSAGG [r11_657_JUSTAS] , thanks.
[A] 2.89 kcal/mol

[Q] folding stability dG unfold lookup needed for SAPDPEQRKKNREQQEKNERMIPIQIHVYDKDGKWKPIGPVWFKDPDVPIDDLVPTFHDEGFDYVSISISAG [r14_318_TrROS] , thanks.
[A] 0.153 kcal/mol

====

protocol-notes: folding stability dG unfold from trypsin proteolysis; higher = more stable
Field: class. Source value: folding stability dG unfold. Ranges: low class = under 0.5 kcal/mol, middle class = from 0.5 kcal/mol up to 2 kcal/mol, high class = 2 kcal/mol and over

[Q] Field: class (folding stability dG unfold) — entry: SAGDKGRYHFPFTVTMPPGKPPSQIEDALGKYGWDDVDINREPPPNGETKYTINVHMPKEDLPKLLEAFSAG [r5_376_TrROS]
[A] middle class

[Q] Field: class (folding stability dG unfold) — entry: SKMYLVKIKIEVYKDGKLVKEEEIEIEVSEEEAKKLAEKLKEELPGYKVKIEIEVREIEPEDEELLKALESA [r9_782_TrROS_Hall]
[A] high class

[Q] Field: class (folding stability dG unfold) — entry: SAGGSAGGEISPEDIESVETETRTLPNGLKITRTRVRVKKTNQWFELVRIEPLPAEELSEEELKSAGGSAGG [r6_757_TrROS_Hall]
[A] middle class

[Q] Field: class (folding stability dG unfold) — entry: SAGGHRMDIQFDGSPDKIEEIQKKIHKKWPDYKVDDIEVNPGNPDQVTIRIEMDNGIPMNEIQEALMSAGGS [r16_180_TrROS]
[A] low class

[Q] Field: class (folding stability dG unfold) — entry: SAGGSAGGSAGGLVLTSTSFTSSNTMVVTTTTLTTNADGSLSTTSTTTTTPVPPPKPGLPSAGGSAGGSAGG [r11_728_JUSTAS]
[A] low class

[Q] Field: class (folding stability dG unfold) — entry: SAGMPVEIPLVIRLTRYRDLPDGPELAEVRELPLPLRADPSELDNPELLAFIREALEKLPDEIREVEIASAG [r5_849_TrMRF]
[A] low class

[Q] Field: class (folding stability dG unfold) — entry: SMKEVEKREFPDGTTVTFSKSSSPVITIKVTTYSPVPNTSELSSSESTYTFPLPPGKPLTLEEVLKKVLESA [r9_614_JUSTAS]
[A] middle class

[Q] Field: class (folding stability dG unfold) — entry: SAGGMPEGDFWVRIRIPVPKYEMERDPNDPNDYKMEPEWKPKEIWLPVKSPEALDEFRENGFEIEPFSAGGS [r8_482_TrROS]
[A] low class

[Q] Field: class (folding stability dG unfold) — entry: SAGGSMKVEVTVTETSTLGDGTRTYTVAVLIDGTPLTFTFPFTSEEEFREAVEEWAKERGVEITLTPSSAGG [r13_750_JUSTAS]
[A] high class

[Q] Field: class (folding stability dG unfold) — entry: GFEVTAEIEVYEDPESGAKVVKVTIPVKNGDPEVLEKAAKELAKKLFGPGAKFDPKIDPETGRVEVTGVLAS [r1_273_TrMRF]
[A] middle class

[Q] Field: class (folding stability dG unfold) — entry: SAGVTVERKPGDGSLTVTVPADDGPLTIEVDLLPNTGTLKATVTYDDGTPATYTFPGGTLEDIIERLHSAGG [r19_159_TrMRF]
[A] low class

[Q] Field: class (folding stability dG unfold) — entry: SAGGFGIKIDEFDPDGEFRISIYDPDTWQPIAEFRIKIKPVPPPPPVEKRPYKDDDGEPKTVTHPDDQSAGG [r13_9_TrROS]
[A] middle class

[Q] Field: class (folding stability dG unfold) — entry: SAGGSAGGSAGMRIVLRLPRDVPLEALRRELEALGGEVRIETEDDPDGRLLFVVELRPKESAGGSAGGSAGG [r11_1050_TrMRF]
[A] middle class

[Q] Field: class (folding stability dG unfold) — entry: SAGGSAGGSADGNTPVEVTITLTDPKTGAVTTVPVVLPTSVSVEEVAAELAAKFGLTTVTVTSAGGSAGGSA [r18_58_JUSTAS]
[A] middle class

[Q] Field: class (folding stability dG unfold) — entry: SAGMITISEEEARELGVPIGASEEEIKEALAARLREEGYKVEFPSVVKEKVDPKTGKVEYKIDINLKPLSAG [r5_23_JUSTAS]
[A] middle class

[Q] Field: class (folding stability dG unfold) — entry: SAGGSAGGSMKLEVEAELEVPLPNGKPKRFKVKFRVEPGESGVKVEVLEVDDPLVVEAIKKLFSAGGSAGGS [r12_743_TrMRF]
[A] high class

[Q] Field: class (folding stability dG unfold) — entry: SANGKEYTFTIEIRVRDPENGQPWTIRITVPIWYDPDDGKLDIDIDVTPTPGMPKEWAERIAKEIIEAISAG [r14_152_TrROS]
[A] high class

[Q] Field: class (folding stability dG unfold) — entry: SAGGSAGGSAGGSKKTLPFPSVEDVVKYLKDLGLKDVKVDLPPGDLTINLDEIEEALKESAGGSAGGSAGGS [r4_101_TrMRF]
[A] low class

[Q] Field: class (folding stability dG unfold) — entry: SMKITATETPVGDKTTVTITVTIDPKEFPNKPPTEEFYKKIAEELMKKLGLKTYNISKTSSNTYTITIVDSA [r9_883_JUSTAS]
[A] high class

[Q] Field: class (folding stability dG unfold) — entry: SAGGSAGGSAGTMTAEEIAKALGAKVVEVYPDKVVIEIEVDGKKYRITINEDGEVTVEEVSAGGSAGGSAGG [r17_252_TrROS_Hall]
[A] high class

[Q] Field: class (folding stability dG unfold) — entry: SAGKPESFSIEAPPIAPPEFPLGGSYRTLPNGEVLVLITLPDGTVLVLPSLDELRELRESGLPIDISPSSAG [r5_42_TrMRF]
[A] middle class

[Q] Field: class (folding stability dG unfold) — entry: SAGGSAPPFYIAINPDKPKSIHIMPPGSPDMRDDDGSKVIPFRTEEEFLKLIQEIKKKGVDKIHIYSAGGSA [r15_1004_TrROS]
[A] low class

[Q] Field: class (folding stability dG unfold) — entry: SAGGSAGGGSLKYTPGVHRLTYYDPATGTTTTLTFTSEEEALEYLKKKYPDVPWKRNPDGTWVLSAGGSAGG [r6_288_JUSTAS]
[A] middle class

[Q] Field: class (folding stability dG unfold) — entry: SAGGSASSMPVTLTLLLTRPDGTPLTLPFEAETLEEAIERGTALAQELIAELGDPNMKITGLEVVPSAGGSA [r15_698_JUSTAS]
[A] middle class

[Q] Field: class (folding stability dG unfold) — entry: SAGGLEIDTSDGNVKVTKVSTKTTVEKDPTNPDRYRIITSKEIKTEPVKPPDVKEGPPIGLNNPELLSAGGS [r16_395_JUSTAS]
[A] low class

[Q] Field: class (folding stability dG unfold) — entry: SAGGSAGGGGMTVTITVPVPSPTATYTVSFPSSSATASFTAEPGGPLTITVNAPSVTSITVTVSSAGGSAGG [r6_808_JUSTAS]
[A] high class
